Tested on: U-251
assay.notes: NCI tumour cell line growth inhibition, 48 h
Active and inactive are the calls of the source. Rule as the data show it: active = GI50 up to about 1.1 µM and inactive = higher. Non-standard residues stand in square brackets, D forms with d. Residues, ends and D or L forms follow the SMILES beside them. ξ: configuration not given here. *: point of attachment. ξF = NC(Cc1ccccc1)C(=O)O; Cbz = O=C(OCc1ccccc1)*; Aib = CC(C)(N)C(=O)O
Possible outcomes: active, inactive

INSERT INTO assay_data (compound, class_assignment) VALUES
  ('O=C(O)[C@H]1NC[C@H]2C(Br)=NO[C@@H]12', 'inactive'),
  ('COC(=O)C(=O)C(C#N)c1ccc(CC#N)cc1 (stereo unspecified)', 'inactive'),
  ('COc1ccc(CC(C)N)cc1 (stereo unspecified)', 'inactive'),
  ('Nc1ccn(C2CCC(COP(=O)(O)OCC(O)COP(=O)(O)OCC3OC(n4cc(F)c(=O)[nH]c4=O)CC3O)O2)c(=O)n1 (stereo unspecified)', 'active'),
  ('COc1nc(N)nc2c1n(C)c[n+]2C', 'inactive'),
  ('Cc1cc2nc3c(C(OC4OC(CO)C(O)C(O)C4O)C(O)CO)nn(-c4ccc(F)cc4)c3nc2cc1C (stereo unspecified)', 'inactive'),
  ('COC(=O)CN1c2nc(C#N)c(C#N)nc2N(CC(=O)OC)c2nc(C#N)c(C#N)nc21', 'inactive'),
  ('Clc1cc2nc(C3CCCCO3)[nH]c2cc1Cl (stereo unspecified)', 'inactive'),
  ('CCOC(=O)CNC(=O)C(Cc1ccccc1)NC(=O)C(C)(C)NC(=O)OCc1ccccc1 (stereo unspecified) (Cbz-[Aib]-[ξF]-Gly-OEt)', 'inactive'),
  ('COc1cccc2cc(C(=O)Nc3ccccn3)c(=N)oc12', 'inactive'),
  ('CCCCCCCCCC(=O)OCC1OC(n2cc(F)c(=O)[nH]c2=O)C(NC(=O)OCc2ccccc2)C(OC(=O)CCCCCCCCC)C1O (stereo unspecified)', 'inactive'),
  ('Nc1ccc(C(=O)N/C(=C\c2ccc3c(c2)OCO3)c2nc3ccccc3s2)cc1', 'inactive'),
  ('O=C1CCCc2cc3c(cc21)CCC3C(=O)O (stereo unspecified)', 'inactive'),
  ('CC(=O)CC(=O)N1CCOC1=O', 'inactive'),
  ('C[C@@]1(O)CC[C@]2(C)C3CCCC3[C@H]12 (stereo partly specified)', 'inactive'),
  ('c1ccc2c3c([nH]c2c1)C1(CCCCC1)c1c([nH]c2ccccc12)C31CCCCC1', 'inactive'),
  ('c1csc(-c2cc(-c3ccsc3)cs2)c1', 'inactive'),
  ('CS(=O)(=O)N(CCC#N)c1ccc(/C=C2\N=C(c3ccccc3Cl)OC2=O)cc1', 'inactive'),
  ('COC(=O)c1nc(N)nc(O)c1-c1ccc(Cl)cc1', 'inactive'),
  ('CCO/C([O-])=C(\C(=O)c1ccc([N+](=O)[O-])cc1)[n+]1c(C)n(C)c2ccccc21', 'inactive'),
  ('CN(C)CCCn1c2ccccc2c2cnccc21', 'inactive');
